test: in vitro; details: African green monkey
Where a name gives a salt, the structure may show the parent alone.
Reported metric: CC50 at 36 h (µM)

1. COc1cc2c3cc1Oc1c(OC)c(OC)cc4c1[C@@H](Cc1ccc(O)c(c1)Oc1ccc(cc1)C[C@@H]3N(C)CC2)N(C)CC4 [Berbamine hydrochloride] : 66.9

====

tested on: SARS-CoV-2; test: microbe, parasite or virus in culture; format: cell-based, SARS-CoV-2 (WIV-04); settings: Severe acute respiratory syndrome coronavirus 2, Caco-2, 36 h
Where a name gives a salt, the structure may show the parent alone.
Reported metric: EC50 (µM)

1. COc1cc2c3cc1Oc1c(OC)c(OC)cc4c1[C@@H](Cc1ccc(O)c(c1)Oc1ccc(cc1)C[C@@H]3N(C)CC2)N(C)CC4 [Berbamine hydrochloride] : 1.89

====

test: Cytotoxicity CCK8 assay, Vero E6; details: African green monkey, Vero E6 cells
Listed here: items and their measured CC50 at 36 h.
Reported metric: CC50 at 36 h

1) COc1ccc2cc1Oc1ccc(cc1)C[C@H]1c3cc(c(OC)cc3CCN1C)Oc1c(O)c(OC)cc3c1[C@H](C2)N(C)CC3 [Fangchinoline, fangchinoline] : > 20 µM
2) COc1ccc2cc1Oc1ccc(cc1)C[C@H]1c3c(cc4c(c3Oc3cc5c(cc3OC)CCN(C)[C@@H]5C2)OCO4)CCN1C [Cepharanthine, cepharanthine] : > 20 µM
3) COc1ccc2cc1Oc1ccc(cc1)C[C@H]1c3cc(c(OC)cc3CCN1C)Oc1c(OC)c(OC)cc3c1[C@H](C2)N(C)CC3 [Tetrandrine, tetrandrine] : > 20 µM
